// data source = the supplement of paper PMC10126150

Tested on: ATP;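 also: ATP exposure 15 min at 22 °C before imaging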
Assay: switch fluorescence ratio, 500 uM ATP over buffer (Cy3 cluster intensity, sum of 5 cycles each) (fold (ratio)); higher = stronger signal-on switching upon ATP binding; sequences stand for … in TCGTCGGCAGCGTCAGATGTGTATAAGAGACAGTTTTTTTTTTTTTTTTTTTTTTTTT…TC
Details: aptamer strand: ATP DNA aptamer (quencher-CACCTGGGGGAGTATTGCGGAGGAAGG + anchor), 100 nM annealed; ATP concentration: 500 uM
switch fluorescence ratio values by entry
Reported property: switch fluorescence ratio

1. TAGTTGGTGG; 0.954
2. CGGGGGACGG; 0.982
3. GTATCTGATG; 1
4. TGCGGGTTAA; 1.02
5. GATTGATTGC; 1
6. ACTCATTCTC; 1.04
7. CGGGAACTTT; 1.02
8. CACAGGAGGG; 1.03
9. CAGTAAAGGA; 1.02
10. ATAGACGGAT; 0.987
11. GGATGTGTAA; 1.01
12. GGCGGGAAAG; 0.983
13. GGGTATGAAG; 1.04
14. GGACGGGGGC; 1
15. CGAAGTCTTT; 0.989
16. TGCTAGGCG; 1.02
17. ACCACATATC; 1.1
18. GGAGTTGCAG; 0.975
19. GTAAACGGTA; 1.08
20. ATTTAGGGCA; 1.02
21. AGTAGAGGGA; 0.995

====

Tested on: ATP;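 also: ATP exposure 15 min at 22 °C before imaging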
Assay: switch fluorescence ratio, 500 uM ATP over buffer (Cy3 cluster intensity, sum of 5 cycles each) (fold (ratio)); higher = stronger signal-on switching upon ATP binding; sequences stand for … in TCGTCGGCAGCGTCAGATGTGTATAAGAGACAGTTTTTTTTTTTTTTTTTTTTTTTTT…TC
Conditions: aptamer strand: ATP DNA aptamer (quencher-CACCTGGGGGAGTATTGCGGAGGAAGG + anchor), 100 nM annealed; ATP concentration: 500 uM
Reported property: switch fluorescence ratio

1) TTTCGTGGCA; 1.02
2) ATGCTAGGGT; 0.991
3) TGAGAATGGG; 0.995
4) AGAATTTATT; 1.01
5) TCTACGGGGT; 1.46
6) TATTCCGGCC; 1.05
7) GTGGACATAT; 0.991
8) CAGGGGAAAC; 1.02
9) TGACATGTAG; 1.01
10) GGAGATTGCG; 0.96
11) CCATAGGGGA; 1.03
12) TGCTATATGT; 0.993
13) CAGGAACTTT; 0.995
14) TGGGTAGGGG; 0.985
15) TGTTTGACGA; 0.991
16) GCGGAATATG; 1.13
17) GTTGTTTTAG; 0.992
18) GCAATCAATA; 1.02
19) TTTTTTTGGA; 0.976
20) GGGATCGTAA; 0.987
21) TCCGCTTTTT; 1.1
22) ACTGTGGGGG; 1.01
23) CTAATCAGCT; 0.977
24) AAGAAAGGTA; 1.01
25) CAAGTGACTT; 1.02
26) GGGAGAGACT; 1.03
27) AACCCGGATT; 0.996
28) TCAAGGGGTT; 1.1
29) TTTTAGGCAC; 1.03
30) GTTGGCTTTG; 0.997
31) GCTACCCATC; 1.1
32) TTTCGGGGCA; 1.02
33) GTTTTCCCTT; 0.982
34) GGCCTGGTGT; 1.29
35) TTCTCGTCTT; 1.04
36) GAGGTGAGAC; 1.06
37) GCTCTCATAT; 1.03
38) AGACCACTTG; 1.04
39) AGGTAGGGGG; 0.993
40) GGCTTCACGA; 1.07
41) ACAAGTTCAG; 0.993
42) ACTGCCGGTC; 1.04
43) CATAGTGCTT; 0.971

====

Tested on: ATP;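 also: ATP exposure 15 min at 22 °C before imaging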
Assay: switch fluorescence ratio, 500 uM ATP over buffer (Cy3 cluster intensity, sum of 5 cycles each) (fold (ratio)); higher = stronger signal-on switching upon ATP binding; sequences stand for … in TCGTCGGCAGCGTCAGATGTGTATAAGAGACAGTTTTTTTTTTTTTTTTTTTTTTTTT…TC
Settings: aptamer strand: ATP DNA aptamer (quencher-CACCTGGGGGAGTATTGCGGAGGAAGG + anchor), 100 nM annealed; ATP concentration: 500 uM
Reported property: switch fluorescence ratio

1) TTTAGTTTTT; 0.996
2) CTGTTAATAG; 1.12
3) CACGAGGAGG; 0.981
4) TTTGAGAGCT; 0.977
5) ATGACTTATT; 0.968
6) TTCAATGTCG; 1.05
7) GGTTGACCTG; 1
8) GGCCCAGGAT; 1.07
9) CGCGGGTTGA; 1.05
10) GTGAAAGTCG; 0.993
11) GGAATGTACG; 1
12) CGGTATATTT; 0.971
13) TCATAACTTT; 0.984
14) CTAAGTAGAT; 1.02
15) GCATAAGAAA; 1.03
16) AAGCGGGCAG; 1
17) AAACAGGGGG; 0.982
18) GAGGCGCATC; 1
19) TCCGGAGGGA; 1.04
20) CCGTAAGGAA; 1.06
21) TAAAATTGGG; 0.989
22) CGGTTTTCTT; 0.995
23) CCGGATCGCG; 1.04
24) CGAGCGGCTA; 1.02
25) TGTTTGTTAG; 1.04
26) CGGCGGGAGC; 1.05
27) CTGCTAGCGG; 1.02
28) CGGGCGGGGG; 1.06
29) GCTGCCGTGT; 0.967
30) AGATTGGGTA; 1.01
31) TGTACGTAG; 1.01
32) GGGCTAAAAC; 0.971
33) GAGAAAGCTA; 1.03
34) TAGTATTAGA; 0.993
35) GGTCAGGGGA; 0.988
36) AAAAGCAGGG; 1
37) ATGTATAGTT; 1.02
38) GGCCGCCTTG; 1
39) CGGCGGCAG; 1.03
40) TAAAAGGCAA; 1.14
41) ATTTTTTAAG; 1
42) GTGTAATAAG; 0.99
43) ATCCGCGGTG; 1.18

====

Test system: ATP;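 also: ATP exposure 15 min at 22 °C before imaging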
Assay: switch fluorescence ratio, 500 uM ATP over buffer (Cy3 cluster intensity, sum of 5 cycles each) (fold (ratio)); higher = stronger signal-on switching upon ATP binding; sequences stand for … in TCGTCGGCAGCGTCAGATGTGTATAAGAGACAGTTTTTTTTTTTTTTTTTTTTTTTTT…TC
Settings: aptamer strand: ATP DNA aptamer (quencher-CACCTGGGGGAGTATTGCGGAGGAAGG + anchor), 100 nM annealed; ATP concentration: 500 uM
Reported property: switch fluorescence ratio

1. CAATAAAGCT; 1.07
2. AGCTTGGGCG; 0.995
3. ACGGAATTGT; 1.07
4. TGCGAATAGG; 1.01
5. AAGCAGTTAC; 3.41
6. TTTCGCCATT; 1.3
7. GGGCGGCTGC; 0.955
8. ACCCTGGTAT; 1.02
9. AGCATGGTAT; 1
10. AGACGGCGGG; 0.996
11. GACCATTGTC; 0.99
12. GGCTTTTACG; 1.03
13. GATTCAGACA; 0.963
14. GAAGAATGTG; 1.01
15. ACCTGTAATA; 1.05
16. TGGATTCATG; 0.978
17. AAATTAATTG; 1.02
18. TTCTATCGTT; 1.01
19. CCGTTTTTGG; 0.993
20. TGGGGGGGAA; 0.999

====

Tested on: ATP;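 also: ATP exposure 15 min at 22 °C before imaging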
Test: switch fluorescence ratio, 500 uM ATP over buffer (Cy3 cluster intensity, sum of 5 cycles each) (fold (ratio)); higher = stronger signal-on switching upon ATP binding; sequences stand for … in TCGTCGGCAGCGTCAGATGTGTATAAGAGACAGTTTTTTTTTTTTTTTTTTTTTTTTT…TC
Conditions: aptamer strand: ATP DNA aptamer (quencher-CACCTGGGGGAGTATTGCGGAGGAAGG + anchor), 100 nM annealed; ATP concentration: 500 uM
Reported property: switch fluorescence ratio

1. TTTTGTATTG; 0.98
2. GGTAGGAACC; 1.01
3. TTTTTAACGC; 1.3
4. CTTAAATTCG; 0.987
5. ACAGGTTAGT; 0.989
6. CAATGTGGGA; 1.01
7. CATGTATTGA; 0.964
8. GAGTACACGT; 0.981
9. GGCTGGAAAC; 1.23
10. TCTTTTGGTG; 1.03
